Origin of measurements: patent US10889591B2

Parameter half-life: see the listing below.
Test: in vitro
Settings: human, microsomes
Could you give me the number in h? Just the number is fine.

Query (molecule): N#Cc1c(N2CCC3(CC2)CC3)c2ccncc2[nH]c1=O ; field requested: half-life 5.25

Query (molecule): N#Cc1c(N2CCC3(CC2)CC3)c2ncccc2[nH]c1=O ; field requested: half-life 0.792

---

Assay: Canine pharmacokinetic evaluation
Assay type: in vivo
Details: dog, plasma; Beagle dogs, intravenous bolus 1 mg/kg, n = 3; read-out: AUCinf iv
Parameter AUC(0-inf): see the listing below.
Could you give me the number in ng·h/mL? Just the number is fine.

Here is how some molecules turned out for AUC(0-inf).
Smiles input | Readout kind | Measured value
N#Cc1c(N2CCC3(CC2)CC3)c2ccncc2[nH]c1=O | AUC(0-inf) | 2240
CCc1cc2c(N3CCC(C)(OC)CC3)c(C#N)c(=O)[nH]c2cn1 | AUC(0-inf) | 1230

Query (molecule): Cc1cc2c(N3CCC4(CCC4)CC3)c(C#N)c(=O)[nH]c2cn1 ; field requested: AUC(0-inf) 1060
